- Test system: SN12C
- Experiment: NCI tumour cell line growth inhibition, 48 h
Calls of active or inactive are those of the source. Cut-off read from the data, not from the text of the source: active = GI50 up to about 1.1 µM and inactive = higher.
# GI50 per record follows

>  <Molecule>
CCCC(=O)OC[n+]1ccc(-c2c(COC(=O)NC(C)C)c(COC(=O)NC(C)C)c3n2CCC3)cc1

>  <GI50>
> 100 µM (inactive)

$$$$
>  <Molecule>
C=CCSc1ncnc2c1ncn2C1OC(CO)C(O)C1O (centres undefined)

>  <GI50>
6.31 µM (inactive)

$$$$
>  <Molecule>
CCCCCCCCCCCC1NC(N)=NC(CCCO)=C1C(=O)OC (centres undefined)

>  <GI50>
2.47 µM (inactive)

$$$$
>  <Molecule>
COc1cccc(NC(=O)CC(=O)NNCC(=O)Nc2nnc(-c3ccc(N(CCC#N)S(=O)(=O)c4ccccc4)cc3)s2)c1

>  <GI50>
89.7 µM (inactive)

$$$$
>  <Molecule>
CC/C(=C(\c1ccccc1)c1ccc(OCC[N+](C)(C)C)cc1)c1ccccc1 [TAMOXIFEN METHYL IODIDE]

>  <GI50>
9.16 µM (inactive)

$$$$
>  <Molecule>
COc1ccc2c(c1)c(Cc1c(C)n(C)c3ccc(OC)cc13)c(C)n2C

>  <GI50>
> 100 µM (inactive)

$$$$
>  <Molecule>
CCCCCCCCCCCCCCCC(=O)OCC1OC(N2C(=O)/C(=N\NC(N)=S)c3ccc([N+](=O)[O-])cc32)C(OC(C)=O)C1OC(C)=O (centres undefined)

>  <GI50>
> 100 µM (inactive)

$$$$
>  <Molecule>
O=C(CCc1cc(-c2ccco2)n(-c2ccc([N+](=O)[O-])cc2[N+](=O)[O-])n1)Nc1ccccc1

>  <GI50>
> 100 µM (inactive)

$$$$
>  <Molecule>
COc1cc(OC)c2c(=O)c3cccc([N+](=O)[O-])c3n(C)c2c1

>  <GI50>
95.3 µM (inactive)

$$$$

====

- Test system: IGROV-1
- Experiment: NCI tumour cell line growth inhibition, 48 h
Calls of active or inactive are those of the source. Cut-off read from the data, not from the text of the source: active = GI50 up to about 1.1 µM and inactive = higher.
Outcome codes: active, inactive

>  <Compound>
COC(=O)[C@]12CC[C@H]3CN(C(=O)OCc4ccccc4)[C@H]([C@H]31)[C@H](C(=O)OCC[Si](C)(C)C)N2S(=O)(=O)c1ccc(C)cc1

>  <Assigned Label>
inactive

$$$$
>  <Compound>
Oc1cccc2ccc(Br)nc12

>  <Assigned Label>
inactive

$$$$
>  <Compound>
CN(C(=O)c1ccc(Cl)cc1)C(=S)N1CCN(c2ccccc2)CC1

>  <Assigned Label>
inactive

$$$$
>  <Compound>
Cn1c(=O)cc2[nH]c3ccccc3n2c1=O

>  <Assigned Label>
inactive

$$$$
>  <Compound>
O=C1C(/C=C/c2ccc(Cl)cc2)=NNC2N1N=C1NC(=O)C3(NN12)c1ccccc1-c1ccccc13 (stereo unspecified)

>  <Assigned Label>
inactive

$$$$
>  <Compound>
CC(C)(C)OC(=O)NC(Cc1ccc(OCc2ccccc2)cn1)C(=O)N1CCSCC1 (stereo unspecified)

>  <Assigned Label>
inactive

$$$$
>  <Compound>
O=C(CC1Sc2ccccc2NC1=O)Nc1cccc(Cl)c1 (stereo unspecified)

>  <Assigned Label>
inactive

$$$$
>  <Compound>
O=c1c2cc(-c3ccccc3)sc2nc2n1N=C(c1ccc(Cl)cc1)CS2

>  <Assigned Label>
inactive

$$$$
>  <Compound>
COc1cc(C2C3C=CC=C4CC=CC(=C43)C3CCC(=O)N32)cc(OC)c1OC (stereo unspecified)

>  <Assigned Label>
inactive

$$$$
>  <Compound>
Nc1ccccc1/C(O)=C1/CCOC1=O

>  <Assigned Label>
inactive

$$$$
>  <Compound>
CC(C)[C@@H]1ON1C(C)c1ccccc1 (stereo partly specified)

>  <Assigned Label>
inactive

$$$$
>  <Compound>
Oc1ccc2c(c1)-c1c(c3ccccc3n1CCN1CCOCC1)CC2

>  <Assigned Label>
inactive

$$$$
>  <Compound>
OCCSCC(O)Cn1cnc2c(O)nc(Nc3ccccc3)nc21 (stereo unspecified)

>  <Assigned Label>
inactive

$$$$
>  <Compound>
CCCC(=O)OC[n+]1ccc(-c2c(COC(=O)NC(C)C)c(COC(=O)NC(C)C)c3n2CCC3)cc1

>  <Assigned Label>
inactive

$$$$
>  <Compound>
COc1cc(OC)c2c(=O)c3cccc([N+](=O)[O-])c3n(C)c2c1

>  <Assigned Label>
inactive

$$$$
>  <Compound>
O=C(O)C1CCCN1Cc1ccc2c(c1)OCO2 (stereo unspecified)

>  <Assigned Label>
inactive

$$$$
>  <Compound>
CCCCSC(=CC(=O)c1cccc(C(=O)C=C(SCCCC)SCCCC)n1)SCCCC

>  <Assigned Label>
inactive

$$$$
>  <Compound>
COc1cccc2c1C(=O)c1c(O)c3c(c(O)c1C2=O)C[C@@](O)(C(C)=O)C[C@@H]3OC1OC(C)C(O)C(N)C1Br (stereo partly specified)

>  <Assigned Label>
active

$$$$
>  <Compound>
N#Cc1c(N)nc(SCc2ccccc2)c(C#N)c1-c1ccc(O)cc1

>  <Assigned Label>
inactive

$$$$
>  <Compound>
[N-]=[N+]=Nc1ccccc1-[n+]1noc([O-])c1Br

>  <Assigned Label>
inactive

$$$$
>  <Compound>
CC(C)=NNc1ncnc2[nH]cnc12

>  <Assigned Label>
inactive

$$$$
>  <Compound>
N#Cc1cc(C#N)c(N)nc1N

>  <Assigned Label>
inactive

$$$$
>  <Compound>
Cc1cc(Cl)nc(Nc2nc3ccccc3[nH]2)n1

>  <Assigned Label>
inactive

$$$$
>  <Compound>
CNc1ccc(Cl)cc1C(=O)N1CCC[C@H]1CO

>  <Assigned Label>
inactive

$$$$
>  <Compound>
O=C(CCc1cc(-c2ccco2)n(-c2ccc([N+](=O)[O-])cc2[N+](=O)[O-])n1)Nc1ccccc1

>  <Assigned Label>
inactive

$$$$
>  <Compound>
CC(C)CC1CC2C(=O)N(c3ccccc3)C(=O)C2c2[nH]c3ccccc3c21 (stereo unspecified)

>  <Assigned Label>
inactive

$$$$
>  <Compound>
Cc1cc2c(cc1C)N1C(Cl)=C3CCCCC3=C(C#N)C1N2 (stereo unspecified)

>  <Assigned Label>
inactive

$$$$
>  <Compound>
Nc1nc(Nc2ccccc2)sc1C(=O)c1ccc(Cl)cc1

>  <Assigned Label>
inactive

$$$$
>  <Compound>
COc1ccc2c(c1)c(Cc1c(C)n(C)c3ccc(OC)cc13)c(C)n2C

>  <Assigned Label>
inactive

$$$$
>  <Compound>
O=[N+]([O-])C=C1c2ccccc2-c2ccccc21

>  <Assigned Label>
inactive

$$$$
>  <Compound>
O=C1C=C2CC[C@H]3[C@@H]4CC[C@H](Oc5c6ccccc6nc6ccccc56)[C@H]4CC[C@@H]3[C@H]2CC1

>  <Assigned Label>
inactive

$$$$
>  <Compound>
O=C(CN1CCOCC1)c1ccc2c(c1)oc(=O)n2CCN1CCOCC1

>  <Assigned Label>
inactive

$$$$
>  <Compound>
Cn1cnc([N+](=O)[O-])c1Sc1nc2ccccc2o1

>  <Assigned Label>
inactive

$$$$
>  <Compound>
CS(=O)(=O)c1nc(Cl)c(Cl)c(C#N)c1Cl

>  <Assigned Label>
inactive

$$$$
>  <Compound>
COc1ccc(C2C(C(=O)c3ccccc3)=C(O)C(O)(CC(=O)c3ccccc3)N2c2ccc(OC)cc2)cc1 (stereo unspecified)

>  <Assigned Label>
inactive

$$$$
>  <Compound>
[N-]=[N+]=Nc1c([N+](=O)[O-])c(=O)n(-c2ccccc2)c2ccccc12

>  <Assigned Label>
inactive

$$$$
